Protocol Description: Dynamic light scattering, colloidal aggregation
Format: physicochemical
Experimental Conditions: deionized and filtered water (0.1% DMSO), kinetic from dmso stock, measured at 10 µM, 1 µM and 100 nM, 25 °C, read-out: DLS maximum soluble concentration at which no aggregates are observed
Reported solubility values for the following molecules.
Observed Property: solubility (µM)

INSERT INTO measurements (molecule, observed_property, qualifier_symbol, reported_result) VALUES
  ('C=CC(=O)Nc1ccc(C)c(-n2c(=O)ccc3cnc4ccc(-c5ccc(NS(C)(=O)=O)cc5)cc4c32)c1 [JS9C]', 'solubility', '=', 1),
  ('C=CC(=O)Nc1cc(C)cc(-n2c(=O)ccc3cnc4cc(-c5ccc(NS(C)(=O)=O)cc5)ccc4c32)c1 [JS25]', 'solubility', '=', 0.1),
  ('C=CC(=O)Nc1cccc(-n2c(=O)ccc3cnc4cc(-c5ccc(NS(C)(=O)=O)cc5)ccc4c32)c1 [JS26]', 'solubility', '≥', 10);
